Reference for the values: patent US20070073056A1

Listed below: Antagonism values for each entry.
- target system: recombinant human cannabinoid 1 receptor (CB1) (Homo sapiens, UniProt P21554)
- Sequence (P21554 whole entry): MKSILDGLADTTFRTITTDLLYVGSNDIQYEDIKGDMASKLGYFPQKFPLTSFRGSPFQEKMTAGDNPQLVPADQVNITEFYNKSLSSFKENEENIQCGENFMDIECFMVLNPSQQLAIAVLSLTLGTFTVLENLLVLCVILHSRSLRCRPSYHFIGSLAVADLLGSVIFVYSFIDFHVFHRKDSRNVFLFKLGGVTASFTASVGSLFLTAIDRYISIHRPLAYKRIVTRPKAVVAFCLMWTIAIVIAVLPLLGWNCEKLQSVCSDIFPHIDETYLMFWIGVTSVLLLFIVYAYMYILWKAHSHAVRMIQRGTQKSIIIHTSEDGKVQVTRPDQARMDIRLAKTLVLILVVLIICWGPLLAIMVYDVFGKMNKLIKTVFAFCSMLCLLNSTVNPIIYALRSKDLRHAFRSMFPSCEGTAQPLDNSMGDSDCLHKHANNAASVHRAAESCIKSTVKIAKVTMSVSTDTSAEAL
- protocol text: [35S]GTPγS binding assay, antagonism to CB1-receptor (Pharmacological methods, part V)
- Format: biochemical
- measurement conditions: compound at 1 μM against agonist WIN 55,212-2; 100% = effect of Rimonabant (1 μM); CHO membranes
Form entry: value (%) — number only.

INSERT INTO results (compound, target_system, reading) VALUES
  ('CC[C@@H]1C(C(=O)NN2CCCCC2)=NN(c2ccc(Cl)cc2Cl)[C@@H]1c1ccc(Cl)cc1 (relative stereo)', 'recombinant human cannabinoid 1 receptor (CB1) (Homo sapiens, UniProt P21554)', 89),
  ('C[C@H]1C(C(=O)NN2CCCCC2)=NN(c2ccc(Cl)cc2Cl)[C@H]1c1ccc(Br)s1 (relative stereo)', 'recombinant human cannabinoid 1 receptor (CB1) (Homo sapiens, UniProt P21554)', 81),
  ('C[C@H]1C(C(=O)O)=NN(c2ccc(Cl)cc2Cl)[C@H]1c1ccc(Cl)cc1 (racemic)', 'recombinant human cannabinoid 1 receptor (CB1) (Homo sapiens, UniProt P21554)', '−18'),
  ('C[C@@H]1C(C(=O)NN2CCCCC2)=NN(c2ccc(Cl)cc2Cl)[C@H]1c1ccccc1 (relative stereo)', 'recombinant human cannabinoid 1 receptor (CB1) (Homo sapiens, UniProt P21554)', 75),
  ('C[C@@H]1C(C(=O)NN2CCCCC2)=NN(c2ccc(Cl)cc2Cl)[C@@H]1c1cccs1.Cl (relative stereo)', 'recombinant human cannabinoid 1 receptor (CB1) (Homo sapiens, UniProt P21554)', 23);

Query string: Report Antagonism for C[C@@H]1C(C(=O)NN2CCCCC2)=NN(c2ccc(Cl)cc2Cl)[C@@H]1c1ccccc1 (relative stereo) please.
Result string: 58

* * *

- target system: CB1-receptor (UniProt P20272)
- protocol text: binding of the pyrazoline compounds to CB1-receptors (Pharmacological Methods, Part I)
- Parameters: IC50; species or system human or rat
- measurement conditions: radioligand [3H]-CP55940, hydrochloride, read-out: IC50
quantity: pIC50
Answer as the number alone; pIC50 is minus log10 of concentration in mol/L.

Query string: Report pIC50 for COc1ccc([C@@H]2[C@H](C)C(C(=O)NN3CCCCC3)=NN2c2ccc(Cl)cc2Cl)cc1.Cl (relative stereo) [Example 265, hydrochloride] please.
Result string: 7.22

* * *

- target system: CB1-receptor (UniProt P20272)
- protocol text: binding of the pyrazoline compounds to CB1-receptors (Pharmacological Methods, Part I)
- Parameters: other: 10^−7 M; other: 10^−8 M; species or system human or rat
- measurement conditions: 10^−8 M, in %
- Protocol: I. In-vitro Determination of Affinity to CB1/CB2-Receptors The in-vitro determination of the affinity of the inventive 4-substituted pyrazoline compounds to CB1/CB2-Rezeptors is carried out as described in the publication of Ruth A. Ross, Heather C. […] Binding affinity to CB1 receptor was evaluated according to a modification of the method described by Govaerts et al., Eur J Pharmac Sci 23, 233-243 (2004). […]
quantity: Inhibition
Write no unit; give the number alone.

Query string: Report Inhibition for COc1ccc([C@@H]2[C@H](C)C(C(=O)N[C@H]3CCCC[C@@H]3O)=NN2c2ccc(Cl)cc2Cl)cc1 (mixture of isomers) [Example 281] please.
Result string: 10.2

Query string: Same question, C[C@@H]1C(C(=O)NN2CCCCC2)=NN(c2ccc(Cl)cc2Cl)[C@@H]1c1ccc(Cl)cc1 (single isomer, unassigned) [Example 419] this time
Result string: 27.8
